I'd be grateful if you could share measured HDAC Inhibition % (10 μM) for these entries.
System: HDAC (Mouse Liver Extract)
Construct: Mouse liver enzyme (10 mg/ml) was diluted 1:6 with HDAC buffer
Assay: HDAC inhibition assay using Boc-Lys(Ac)-AMC substrate, mouse liver enzyme
Assay type: biochemical
Conditions: 10 μM
Text: Histone Deacetylase (HDAC) Inhibition Assay using Boc-Lys (Ac)-AMC Substrate: Inhibition of HDAC has been implicated to modulate transcription and to induce apoptosis or differentiation in cancer cells. The fluorometric assay provides a fast and fluorescence based method that eliminates radioactivity, extractions or chromatography, as used in traditional assays. The assay is based on two steps. […]
Please give a number only; it is taken to be in %.

(Q) What measured HDAC Inhibition % (10 μM) goes with Cc1ccc(/C(=C\c2ccc(C(=O)NO)cc2)C(=O)NC2CC2)cc1 ?
(A) 59.0

(Q) Let us now turn to Nc1ccccc1NC(=O)c1ccc(/C=C(/C(=O)NC2CC2)c2ccccc2F)cc1
(A) 66.8

(Q) // repeat for O=C(NC1CC1)/C(=C/c1ccc(C(=O)NCc2ccc(C(=O)NO)cc2)cc1)c1ccc(F)c(F)c1 and report
(A) 97.0

(Q) Another compound to look at: COc1ccc(/C(=C\c2ccc(C(=O)NCc3ccc(C(=O)NO)cc3)cc2)C(=O)NC2CC2)cc1
(A) 97.5
